target: Alpha-2C adrenergic receptor (Homo sapiens) (UniProt P18825); assay: compounds altering alpha2C-coupled GIRK flux – cell-based, HEK293 alpha2C/GIRK1/2, thallium flux, primary screen (AID 624); conditions: thallium flux BTC fluorescence, at 10 µM, actives lie on both sides;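 further: slope of fluorescence ratio to pre-addition baseline per second over 15 to 24 s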
Sequence (P18825 whole entry, looked up): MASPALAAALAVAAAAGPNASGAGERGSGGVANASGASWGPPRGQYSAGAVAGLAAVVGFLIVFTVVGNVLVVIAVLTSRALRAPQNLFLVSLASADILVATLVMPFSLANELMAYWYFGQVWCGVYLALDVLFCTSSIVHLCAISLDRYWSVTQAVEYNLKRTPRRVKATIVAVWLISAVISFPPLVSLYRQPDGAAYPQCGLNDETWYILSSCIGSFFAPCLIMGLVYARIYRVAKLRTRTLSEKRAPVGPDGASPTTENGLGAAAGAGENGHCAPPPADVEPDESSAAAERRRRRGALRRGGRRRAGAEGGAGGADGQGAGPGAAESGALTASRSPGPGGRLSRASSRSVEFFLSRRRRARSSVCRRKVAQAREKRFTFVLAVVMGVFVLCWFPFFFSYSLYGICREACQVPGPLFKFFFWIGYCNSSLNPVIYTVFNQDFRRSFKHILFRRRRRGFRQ
slope: recorded values
// response body must contain only the number

Record excerpt, results attached:
compound	assay-readout	assay-result
O=C(O)c1cccc(NC(=O)C23CC4CC(C2)CC(n2cnc(Cl)n2)(C4)C3)c1	slope	0.00606
O=S(=O)(Nc1ncccn1)c1ccc(Nc2ncnc3ccccc23)cc1	slope	0.00604
O=C(Nc1ccc(Cl)cn1)c1cccnc1	slope	0.00527
CCOC(=O)c1ccc2ncc(C(=O)OCC)c(NCCN(C)C)c2c1	slope	0.00656
Cc1nc2ccc(Br)cn2c1NC(C)(C)C	slope	0.00552
Cc1cccc(NC(=O)CC(C)(C)C)c1	slope	0.00657

# next compound below
Prompt: Any idea what its slope is? The compound is CCOC(=O)c1ccccc1NC1c2ccccc2C(=O)N1C1CCN(C(=O)OCC)CC1 (centres undefined)
Completion: 0.00667

---

experiment: reduction of polyQ htt aggregates in cells – imaging, exon1htt(103Q)mCFP cells, high-content imaging, primary screen (AID 483); settings: exon1htt(103Q)mCFP cell line, aggregate imaging, at 2 µM; stronger effect = higher value;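 further: compound exposure lasted 3 days before fixation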
inhibition of aggregation: recorded values
// note: answer is a bare numeric in %

Record excerpt, results attached:
compound	assay-readout	assay-result
CC1CCN(C(=O)Cn2cc3c(n2)CCCC3)CC1	inhibition of aggregation	-26
CS(=O)(=O)N(CC(=O)N1CCc2ccccc2C1)c1ccc2c(c1)OCO2	inhibition of aggregation	17
CC(Oc1ccccc1)C(=O)NC1CC(C)(C)NC(C)(C)C1 (stereo not given)	inhibition of aggregation	4.3
CC(C)n1c(NCc2c[nH]c3ccccc23)nc2ccccc21	inhibition of aggregation	20.3

Prompt: Any idea what its inhibition of aggregation is? The compound is O=c1cc(CSc2ccccn2)c2ccccc2[nH]1
Completion: 9.1

Prompt: Any idea what its inhibition of aggregation is? The compound is Cc1nnc(C)c2c(C)n(Cc3ccc4c(c3)OCO4)c(C)c12
Completion: 4.3

Prompt: Any idea what its inhibition of aggregation is? The compound is CC(=O)Oc1ccc(-c2ccc(C(=O)O)cc2)cc1
Completion: 17.9

Prompt: Any idea what its inhibition of aggregation is? The compound is CC1(C)CC(=O)CC(=Nc2ccc(C(=O)O)cc2)C1
Completion: 10.3

Prompt: Any idea what its inhibition of aggregation is? The compound is CCC(=O)Nc1ccc(NC(=O)c2cccc(OC)c2)nc1
Completion: -5.7

---

slope: recorded values
molecular target: Alpha-2C adrenergic receptor (Homo sapiens) (UniProt P18825); assay: compounds altering alpha2C-coupled GIRK flux – cell-based, HEK293 alpha2C/GIRK1/2, thallium flux, primary screen (AID 624); conditions: thallium flux BTC fluorescence, at 10 µM, actives lie on both sides;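 further: slope of fluorescence ratio to pre-addition baseline per second over 15 to 24 s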
// response body must contain only the number

Record excerpt, results attached:
compound	assay-result
Cc1cccc(NC(=O)c2cc(NC(=O)c3ccco3)ccc2N2CCCCC2)c1	0.0032
Cc1cccc(-n2ncc3c(N4CCC5(CC4)OCCO5)ncnc32)c1	0.00695
CCOC(=O)N1CCN(c2cc(=O)n(-c3ccccc3Cl)c(=O)[nH]2)CC1	0.00703
CCOc1ccc(-c2cc(CCCC(=O)N3CCN(c4ccc(OC)cc4)CC3)no2)cc1	0.00539
NS(=O)(=O)c1ccc(CCNC(=O)c2cccnc2)cc1	0.00459
CCOCCCNC(=O)C1CCC(CNS(=O)(=O)c2cccc3nsnc23)CC1 (stereo not given)	0.00547

Prompt: Any idea what its slope is? The compound is CCn1cc(S(=O)(=O)CC(=O)Nc2ccc(OC)cc2)c2ccccc21
Completion: 0.00751

Prompt: Any idea what its slope is? The compound is CC(=O)Nc1ccc2c(c1)nc(CCNC(=O)c1ccccc1)n2C
Completion: 0.00514

Prompt: Any idea what its slope is? The compound is CC(C)c1ccc(-c2nc(N3CCOCC3)[nH]c(=O)c2C#N)cc1
Completion: 0.00599

Prompt: Any idea what its slope is? The compound is COc1cccc(-c2csc(N3CCN(CC(=O)Nc4ccc5c(c4)OCO5)CC3)n2)c1
Completion: 0.00556

Prompt: Any idea what its slope is? The compound is C=CCN(CC=C)C(=O)c1ccncc1
Completion: 0.00479

Prompt: Any idea what its slope is? The compound is Cc1cc(Nc2ccc(N3CCC(C)CC3)cc2)n2ncnc2n1
Completion: 0.00396

Prompt: Any idea what its slope is? The compound is Cc1ccccc1CSc1nnc(C)c(=O)[nH]1
Completion: 0.00756

Prompt: Any idea what its slope is? The compound is Cc1cnc(NC(=O)CSc2nnc(COc3c(C)cccc3C)o2)s1
Completion: 0.00686

Prompt: Any idea what its slope is? The compound is O=C(Nc1nc(-c2ccncc2)cs1)C1COc2ccccc2O1 (stereo not given)
Completion: 0.00702

---

target: Alpha-2C adrenergic receptor (Homo sapiens); test: compounds altering alpha2C-coupled GIRK flux – cell-based, HEK293 alpha2C/GIRK1/2, thallium flux, primary screen (AID 624); details: thallium flux BTC fluorescence, at 10 µM, actives lie on both sides;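 further: slope of fluorescence ratio to pre-addition baseline per second over 15 to 24 s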
Activity calls are given as the source filed them.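 The calls were made as follows: active = fluorescence slope after compound addition differing from the mean of all screened samples at 99.7% confidence, in either direction; inactive = the rest.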
slope: recorded values

Record excerpt, results attached:
molecule	assay-readout	assay-result
Cc1cccc(-n2nc3c(c2NC(=O)CCC2CCCCC2)CS(=O)C3)c1C (stereo not drawn)	slope	0.00515 (inactive)
N#CCCCCn1c(-c2cncs2)nc2ccccc21	slope	0.00375 (inactive)

Prompt: Any idea what its slope is? The molecule is Cc1ccc(C(=O)Nc2ccc3c(c2)OCO3)cc1S(=O)(=O)N1CCCC1
Completion: 0.00564 (inactive)

---

inhibition: recorded values
assay: TLR3 IRF3 reporter activation blockers – cell-based, poly I:C stimulus, luciferase, 10K MLSCN set, primary screen (AID 602277); conditions: HEK293-TLR3 RL24 IRF3 luciferase reporter, at 10 µM, stronger effect = higher value
// note: answer is a bare numeric in %

Record excerpt, results attached:
molecule	inhibition / %
COc1ccc2c(c1)C(C)=CC(C)(C)N2C(=O)CSc1nnc(-c2ccc(C)cc2)o1	17.4
Cc1ccc2c(c1)CCCN2C(=O)Nc1ccc2c(c1)OCO2	14.5
Cc1cccc(Nc2nc(N)nc(CN3CCC(C(N)=O)CC3)n2)c1C	-60.3
COc1ccc(C2=NO[C@@H]3C(=O)N(c4ccc5c(c4)OCCO5)C(=O)[C@H]23)cc1OC	6.66
C=CCN1C(=O)CS/C1=C(\C#N)S(=O)(=O)c1ccc(C)cc1	28.5
COc1ccc(S(=O)(=O)NCC(c2cccnc2)N2CCN(c3ccc(F)cc3)CC2)cc1C (configuration not stated)	27.2
CCOc1ccc(N(CC(=O)NCc2ccco2)S(=O)(=O)c2ccc(OC)c(OC)c2)cc1	30.5
O=S(=O)(c1ccccc1)N(Cc1nc(-c2ccccc2)no1)C1CCCCC1	30.8

Prompt: Any idea what its inhibition is? The molecule is Cc1nc2ncnn2c(C)c1CCC(=O)NCCCN1CCN(c2cccc(Cl)c2)CC1
Completion: 16.9

Prompt: Any idea what its inhibition is? The molecule is Cc1c(NC(=O)CSc2nnc3sc4ccccc4n23)c(=O)n(-c2ccccc2)n1C
Completion: 24.6

Prompt: Any idea what its inhibition is? The molecule is CCCCCc1c(C)nc(SCC(=O)O)[nH]c1=O
Completion: -1.36

Prompt: Any idea what its inhibition is? The molecule is O=C(NC1CCCC1)C(c1cccs1)N(Cc1ccco1)C(=O)Cn1nnc(-c2cccs2)n1 (configuration not stated)
Completion: 23.1

Prompt: Any idea what its inhibition is? The molecule is O=C1CC(N2CCN(c3ccc(Cl)c(Cl)c3)CC2)C(=O)N1 (configuration not stated)
Completion: 20.7

---

nuclei count: recorded values
test: reduction of polyQ htt aggregates in cells – imaging, exon1htt(103Q)mCFP cells, high-content imaging, primary screen (AID 483); details: exon1htt(103Q)mCFP cell line, aggregate imaging, at 2 µM; measured here: cell count, toxicity;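 further: compound exposure lasted 3 days before fixation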;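 on nuclei count: percent of the per-plate median nuclei count of sample wells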
// note: answer is a bare numeric in %

Record excerpt, results attached:
compound	unit-tag	nuclei count
CN1CCN(C(=O)c2ccc3c(=O)n(CCc4ccccc4)c(=S)[nH]c3c2)CC1	%	77
N#CCCN(C(=O)Nc1ccc(Cl)cc1)c1ccccc1	%	98.6
COc1ccc(C)cc1NS(=O)(=O)c1ccc(NS(=O)(=O)c2ccc(NC(C)=O)cc2)cc1	%	99.4
CCOC(=O)N(C)c1ccc(C(O)(C(F)(F)F)C(F)(F)F)cc1	%	105
O=C1c2ccccc2NC2CCCCCN12 (stereo not drawn)	%	108
COc1ccccc1-n1c(=O)[nH]c2c(C(N)=O)nc(CC(C)C)nc21	%	105
COc1ccc(-n2ncc3c(NCCCN4CCOCC4)ncnc32)cc1	%	116
CCCS(=O)(=O)NCCc1cc2cc(C)c(C)cc2[nH]c1=O	%	84.9

Prompt: Any idea what its nuclei count is? The compound is O=C(COc1ccccc1)N1CCN(c2ncnc3c2cnn3-c2ccccc2)CC1
Completion: 108
